- protocol: Human pregnane X receptor (PXR) small molecule agonists, qHTS cell viability counter screen (AID 1346977); also: % is scaled to controls: 0 for no effect and ±100 for the full control effect; nearly all actives have a fitted effect of over 50% in size
- recorded-conditions: PXR-Luc HepG2 viability, CellTiter-Fluor, 24 h; series mostly up to 92.4 µM
Records with an inconclusive call do not appear. Activity calls are given as the source filed them. Calls follow the shape of the dose curve; as a rule, active = well fitted cell-killing curve with a large enough effect in the repeat runs; inconclusive = weak or mixed curves, or effect the other way; inactive = flat fitted curve, though single readings scatter.
metric-name: activity change, negative = cytotoxicity

Completed entries (count: 6):
1. CCC1(CC)C(=O)C=CNC1=O :: inactive
2. C=C(Cl)CSC(=S)N(CC)CC :: inactive
3. CC(C)c1ccc(O)cc1 :: inactive
4. Cc1ccc(-c2nc3ccc(C)cn3c2CC(=O)N(C)C)cc1 :: inactive
5. CCNP(=S)(OC)O/C(C)=C/C(=O)OC(C)C (configuration not stated) :: inactive
6. CCCCOC(C)=O :: inactive

Next molecule, activity change, negative = cytotoxicity to be filled in.
## Input # lookup: activity change, negative = cytotoxicity of "Cc1ccc(S(=O)(=O)N[C@@H](CCCCN)C(=O)CCl)cc1"
## Output inactive

* * *

- protocol: qHTS assay to identify small molecule antagonists of the retinoid acid receptor (RAR) signaling pathway - cell viability counter screen (AID 1159551); also: % is scaled to controls: 0 for no effect and ±100 for the full control effect; nearly all actives have a fitted effect of over 35% in size
- recorded-conditions: C3RL4 cells viability, ATP luminescence (CellTiter-Glo), 6 h; series mostly up to 92.4 µM
- Description: U.S. Tox21 Program National Center for Advancing Translational Sciences [NCATS] NIH Chemical Genomics Center [NCGC] U.S. Environmental Protection Agency [EPA] National Institutes of Environmental Health Sciences [NIEHS] National Toxicology Program [NTP] U.S. Food and Drug Administration [FDA] […] Also cytotoxicity was assessed by determining the viability of cells based on the quantitation of ATP. […]
Results filed as inconclusive are left out. Calls of active or inactive are those of the source. Calls come from the whole dose curve; as a rule, active = well fitted cell-killing curve with a large enough effect in the repeat runs; inconclusive = weak or mixed curves, or effect the other way; inactive = flat fitted curve, though single readings scatter.
metric-name: activity change, negative = cytotoxicity

1) Cc1ccc(-c2nc3ccc(C)cn3c2CC(=O)N(C)C)cc1 :: inactive
2) CN(C)C1CCCCC1 :: inactive
3) CCOC(=O)c1ncn2c1CN(C)C(=O)c1c(I)cccc1-2 :: inactive
4) CC(C)[N+](C)(CCC(C(N)=O)(c1ccccc1)c1ccccc1)C(C)C :: inactive
5) C[C@H](N)C(=O)c1ccccc1 :: inactive

## Input # lookup: activity change, negative = cytotoxicity of "ClC(Cl)(Cl)Cl"
## Output inactive

## Input # lookup: activity change, negative = cytotoxicity of CCOC1Oc2ccc(OS(C)(=O)=O)cc2C1(C)C (stereo unspecified)
## Output inactive

* * *

- protocol: qHTS assay for identifying genotoxic compounds that show differential cytotoxicity against isogenic chicken DT40 cell lines with known DNA damage response pathways - wild type cell line (AID 743012); also: % is scaled to controls: 0 for no effect and ±100 for the full control effect; nearly all actives have a fitted effect of over 60% in size
- recorded-conditions: DT40 wild type chicken cells viability, CellTiter-Glo, 40 h; series mostly up to 68.4 µM
Inconclusive results are not listed. Active and inactive are the calls of the source. The call rests on the fitted dose curve; in most records, active means well fitted cell-killing curve with a large enough effect in the repeat runs; inconclusive means weak or mixed curves, or effect the other way; inactive means no such curve, though single readings can be large or run the other way.
metric-name: outcome

1. CCCCCCCCBr :: inactive
2. C/C=C/CC#N :: inactive
3. CC(C)NCC(O)c1ccc([N+](=O)[O-])cc1 (stereo not drawn) :: inactive
4. CCN(CC)CCOC(=O)C(O)(c1ccccc1)c1ccccc1 :: inactive

## Input # lookup: outcome of "Oc1ccc(Cc2ccc(O)cc2)cc1"
## Output inactive

## Input # lookup: outcome of "CC(C)[N+](C)(CCC(C(N)=O)(c1ccccc1)c1ccccc1)C(C)C"
## Output inactive

## Input # lookup: outcome of "CCSC(=O)Cl"
## Output inactive

## Input # lookup: outcome of C=CC1(C)OC(=O)N(c2cc(Cl)cc(Cl)c2)C1=O (stereo not drawn)
## Output inactive

* * *

- protocol: qHTS assay to identify small molecule agonists of the constitutive androstane receptor (CAR) signaling pathway - cell viability counter screen (AID 1224836); also: % is scaled to controls: 0 for no effect and ±100 for the full control effect; nearly all actives have a fitted effect of over 45% in size
- recorded-conditions: HepG2-CYP2B6-hCAR viability, CellTiter-Fluor, 23 h, PK11195 added to every well; series mostly up to 92.4 µM
Results filed as inconclusive are left out. The source made the active and inactive calls. Calls come from the whole dose curve; as a rule, active = well fitted cell-killing curve with a large enough effect in the repeat runs; inconclusive = weak or mixed curves, or effect the other way; inactive = flat fitted curve, though single readings scatter.
metric-name: viability change, negative = cytotoxic

Completed entries (count: 5):
1. Clc1cc2c(cc1Cl)Oc1cc(Cl)c(Cl)cc1O2 :: -0.641% [at 0.349 µM] (inactive)
2. O=S1(=O)OCCO1 :: inactive
3. c1cncc([C@@H]2CCCCN2)c1 :: inactive
4. CCN[C@H](C)Cc1cccc(C(F)(F)F)c1 :: inactive
5. C=C(Cl)CCl :: inactive

Next molecule, viability change, negative = cytotoxic to be filled in.
## Input # lookup: viability change, negative = cytotoxic of "COC(=O)[C@@H](N)CCCN/C(N)=N/[N+](=O)[O-]"
## Output inactive

* * *

- protocol: qHTS assay to identify small molecule agonists of the hypoxia (HIF-1) signaling pathway (AID 1224846); also: % is scaled to controls: 0 for no effect and ±100 for the full control effect
- recorded-conditions: HRE-bla ME-180 cells, beta-lactamase ratio, 17 h; series mostly up to 76.8 µM
- Description: U.S. Tox21 Program National Center for Advancing Translational Sciences [NCATS] NIH Chemical Genomics Center [NCGC] U.S. Environmental Protection Agency [EPA] National Institutes of Environmental Health Sciences [NIEHS] National Toxicology Program [NTP] U.S. Food and Drug Administration [FDA] […] Tox21 10K library compounds were measured for their ability to induce the reporter gene activity. […]
Records with an inconclusive call do not appear. The source made the active and inactive calls. Calls come from the whole dose curve; as a rule, active = well fitted activation curve with a large enough effect in the signal ratio in the repeat runs (not every such curve was filed as active); inconclusive = weak or mixed curves; inactive = flat fitted curve, though single readings scatter; the % refers to the signal ratio.
metric-name: activation

1) CON(C)C(=O)Nc1ccc(Br)cc1 :: inactive
2) O=P(O)(O)CN(CP(=O)(O)O)CP(=O)(O)O :: inactive
3) C/C(=N\NC(=O)Nc1cc(F)cc(F)c1)c1ncccc1C(=O)O :: inactive
4) C[C@H]1CCCC(=O)CCC/C=C/c2cc(O)cc(O)c2C(=O)O1 :: inactive
5) CC(Cc1ccccc1)NCCn1cnc2c1c(=O)n(C)c(=O)n2C (stereo not given) :: inactive

## Input # lookup: activation of C=CCC1(C(C)CC)C(=O)NC(=O)NC1=O (stereo not given)
## Output inactive

## Input # lookup: activation of "NC(=O)OCCCc1ccccc1"
## Output inactive

## Input # lookup: activation of CN1C(=O)COc2c(C(=O)NC3CN4CCC3CC4)cc(Cl)cc21 (stereo not given)
## Output inactive

## Input # lookup: activation of "CN=CNc1ccc(C)cc1C"
## Output inactive

## Input # lookup: activation of O=C(NC(O)C(Cl)(Cl)Cl)NC(O)C(Cl)(Cl)Cl (stereo not given)
## Output inactive

## Input # lookup: activation of O=C1CCCCC1Cl (stereo not given)
## Output inactive

## Input # lookup: activation of "O=C(Cl)c1ccccc1"
## Output inactive

* * *

- protocol: qHTS assay to identify small molecule agonists of the hypoxia (HIF-1) signaling pathway (AID 1224846); also: % is scaled to controls: 0 for no effect and ±100 for the full control effect
- recorded-conditions: HRE-bla ME-180 cells, beta-lactamase ratio, 17 h; series mostly up to 76.8 µM
Results filed as inconclusive are left out. Active and inactive are the calls of the source. Calls come from the whole dose curve; as a rule, active = well fitted activation curve with a large enough effect in the signal ratio in the repeat runs (not every such curve was filed as active); inconclusive = weak or mixed curves; inactive = flat fitted curve, though single readings scatter; the % refers to the signal ratio.
metric-name: activation

1) CCOC(=O)c1ncn2c1CN(C)C(=O)c1c(I)cccc1-2 :: inactive
2) CC(C)(O)C(Cl)(Cl)Cl :: inactive
3) CCCCOC(C)=O :: inactive
4) COc1cccc([C@@]2(O)CCCC[C@@H]2CN(C)C)c1 :: inactive

## Input # lookup: activation of "O=[N+]([O-])c1cccc(CCl)c1"
## Output inactive

## Input # lookup: activation of "CCOC(=O)N(C)N=O"
## Output inactive

## Input # lookup: activation of "CC(C)[C@]12CC(=O)[C@H](C)[C@H]1C2"
## Output inactive

* * *

- protocol: qHTS assay to identify small molecule antagonists of the farnesoid-X-receptor (FXR) signaling pathway - cell viability counter screen (AID 743221); also: % is scaled to controls: 0 for no effect and ±100 for the full control effect; nearly all actives have a fitted effect of over 50% in size
- recorded-conditions: FXR-bla HEK293T viability, CellTiter-Glo luminescence, 16 h; series mostly up to 62.6 µM
Inconclusive results are not listed. Activity calls are given as the source filed them. The call rests on the fitted dose curve; in most records, active means well fitted cell-killing curve with a large enough effect in the repeat runs (not every such curve was filed as active); inconclusive means weak or mixed curves, or effect the other way; inactive means no such curve, though single readings can be large or run the other way.
metric-name: activity change, negative = cytotoxicity

1) C=CCN1CC[C@]23CCCC[C@H]2[C@H]1Cc1ccc(O)cc13 :: inactive
2) CC1NCCOC1c1ccccc1 (stereo unspecified) :: inactive
3) Cl/C=C/CCl :: inactive
4) C=CC(=O)OCCN(C)C :: inactive
5) N#CC(Br)(Br)C(N)=O :: inactive

## Input # lookup: activity change, negative = cytotoxicity of CC(Cc1ccccc1)NCCCCl (stereo unspecified)
## Output inactive

## Input # lookup: activity change, negative = cytotoxicity of "CC(C)(O)C(Cl)(Cl)Cl"
## Output inactive

## Input # lookup: activity change, negative = cytotoxicity of "CCN(CCO)CCO"
## Output inactive

## Input # lookup: activity change, negative = cytotoxicity of C(COCC1CO1)OCC1CO1 (stereo unspecified)
## Output inactive

## Input # lookup: activity change, negative = cytotoxicity of "S=C=S"
## Output inactive

## Input # lookup: activity change, negative = cytotoxicity of "CCCCCCC(=O)CCCCCC/C=C/C[C@@H](O)[C@H](O)[C@@](N)(CO)C(=O)O"
## Output inactive

## Input # lookup: activity change, negative = cytotoxicity of CC(O)CCl (stereo unspecified)
## Output inactive

## Input # lookup: activity change, negative = cytotoxicity of "O=C(NC(=O)c1c(F)cccc1F)Nc1cc(Cl)c(F)c(Cl)c1F"
## Output inactive

## Input # lookup: activity change, negative = cytotoxicity of "CCOP(=O)(CN(CCO)CCO)OCC"
## Output inactive

## Input # lookup: activity change, negative = cytotoxicity of CCCOC(=O)c1cncn1C(C)c1ccccc1 (stereo unspecified)
## Output inactive

## Input # lookup: activity change, negative = cytotoxicity of "C[C@@H](N)[C@@H](O)c1ccccc1"
## Output inactive

## Input # lookup: activity change, negative = cytotoxicity of "CC(=O)CN(CC(C)=O)N=O"
## Output inactive

## Input # lookup: activity change, negative = cytotoxicity of "Cc1cccc2sc3nncn3c12"
## Output inactive

## Input # lookup: activity change, negative = cytotoxicity of "CCCCCCCCSC(=O)Oc1cc(Cl)nnc1-c1ccccc1"
## Output inactive

## Input # lookup: activity change, negative = cytotoxicity of "CCOC(=O)NC(C)(C)Cc1ccc(Cl)cc1"
## Output inactive
